assay: NCI Yeast Anticancer Drug Screen. Data for the mlh1 strain (AID 171);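 also: 0% = growth of vehicle-treated control cultures of the same strain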; settings: S. cerevisiae mlh1 strain growth inhibition; at 11.0 µM; active compounds read high
This is part of a sample that, as a whole, favours compounds with a hit. Of some 79,000 tested, about 15% had one in any assay.
measurement.type: growth inhibition (%)
Express it in %; write the number only.

INSERT INTO results (molecule, observed) VALUES
  ('CC(=O)OC1CC2C(C)(C)C(=O)C=C[C@]2(C)C2CCC3(C)C(=CCC3[C@H](CO)C[C@H](O)C(=O)C(C)(C)O)[C@]12C (stereo partly specified)', 39),
  ('CCOC(=O)C(Br)C(Br)c1ccccc1Cl (stereo unspecified)', 92),
  ('CCCCCCN(CCCCCC)CC(O)c1ccnc2ccc(OC)cc12 (stereo unspecified)', -3);

Output growth inhibition of CNC(=O)OCc1c(COC(=O)NC)c(-c2ccc(Cl)c(Cl)c2)n2c1SCC2
-3

Output growth inhibition of O=C(CC(=O)n1nc(-c2ccccc2)c(N=Nc2ccc(Cl)cc2)c1-c1ccccc1)Nc1cccc(Cl)c1
-2

Output growth inhibition of Cc1cccc[n+]1C1CCc2c(ccc3ccccc23)C1=O (stereo unspecified)
2

###

assay: NCI Yeast Anticancer Drug Screen. Data for the rad50 strain (AID 155);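 also: 0% = growth of vehicle-only cultures of the same strain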; settings: S. cerevisiae rad50 strain growth inhibition; at 33.0 µM; active compounds read high
The panel holds about 79,000 compounds, 15% with a hit somewhere; the sample as a whole holds those more often.
measurement.type: growth inhibition (%)
Express it in %; write the number only.

Reference set, count: 4
INSERT INTO assay_data (compound, measurement_type, observed) VALUES
  ('CCOC(=O)/C(=C\c1ccc(C#N)cc1)C(C)=O', 'growth inhibition', 91),
  ('COc1ccc(/C=C/C(=O)c2ccccc2)cc1OC', 'growth inhibition', 44),
  ('COc1ccc(NC(=O)CC2SC(=Nc3ccccc3C)NC2=O)c([N+](=O)[O-])c1 (stereo not given)', 'growth inhibition', 18),
  ('O=c1ccc2ccccc2c2ccccc12', 'growth inhibition', 97);

Alright, here's another compound for you.
Output growth inhibition of Cc1ccccc1N=Cc1cc(Cl)ccc1O
44

###

Experiment: NCI Yeast Anticancer Drug Screen. Data for the mec2-1 strain (AID 157)
Conditions: S. cerevisiae mec2-1 strain, at 1.2 µM, active compounds read high
Protocol: Growth inhibition of yeast strains with defined genetic alterations is measured as a screen for potential anti-cancer activity. Selected strains with alterations in DNA damage repair or cell cycle control were exposed to compounds and growth inhibition was measured relative to vehicle treated controls. The strain used in this assay is mec2-1
The panel holds about 79,000 compounds, 15% with a hit somewhere; the sample as a whole holds those more often.
measurement.type: growth inhibition (%)
Express it in %; write the number only.

Reference set, count: 4
INSERT INTO results (compound, observed) VALUES
  ('CCCCC(CC)C(=O)[O][Sn]([CH2]CCC)([CH2]CCC)[O]C(=O)C(CC)CCCC (stereo not given)', -11),
  ('Cc1c2ccnc(C(=O)NCCN(C)C)c2cc2c3cc(O)ccc3n(C)c12', 1),
  ('O=C(Oc1ccc2c(c1)CN(Cc1ccccc1)CO2)c1ccccc1', -2),
  ('CSc1nnc(SC)nn1', 9);

Alright, here's another compound for you.
Output growth inhibition of COc1cc(C2c3cc4c(cc3OC(OC(C)=O)C2C)OCO4)cc(OC)c1OC (stereo not given)
-6

###

# growth inhibition values compiled below
assay: NCI Yeast Anticancer Drug Screen. Data for the mgt1 strain (AID 153); conditions: S. cerevisiae mgt1 mutant growth inhibition; at 3.7 µM; active compounds read high
Compounds without any hit were thinned out: in the full panel of roughly 79,000, 15% have a hit.
Express it in %; write the number only.

INSERT INTO measurements (compound, observed) VALUES
  ('CC(=O)OCC1OC2OC(=O)NC2C(OC(C)=O)C1OC(C)=O (stereo not drawn)', -1);

Output growth inhibition of Nc1ccn(C2OC(COP(=O)(O)O)C(O)C2O)c(=O)n1 (stereo not drawn)
4

Output growth inhibition of CC(=O)OCC(C)Cc1cc2c(cc1Br)OCO2 (stereo not drawn)
-9

Output growth inhibition of COC1CCC(O)C(/C=C/[N+](=O)[O-])C1 (stereo not drawn)
63

Output growth inhibition of CC(C)=NOC(=O)Nc1ccc(Cl)cc1
-60

Output growth inhibition of Oc1ccc2ccccc2c1CCc1c(O)ccc2ccccc12
6

Output growth inhibition of CN1C(=O)c2ccc3ccccc3c2C1=O
1

Output growth inhibition of CC(C)(C)N=C(NO)c1ccccc1
1

Output growth inhibition of Cc1cc2c(cc1C)[n+]([O-])c(-c1nc3ccccc3s1)c(N)[n+]2[O-]
18

Output growth inhibition of CC(C)OC(=O)c1ccc(CCc2cc(O)c(Br)cc2O)cc1
70

Output growth inhibition of CCCC(=O)Oc1ccc(/C=N/NC(N)=S)nc1
-5

###

assay: NCI Yeast Anticancer Drug Screen. Data for the sgs1 strain (AID 173);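 also: 0% = growth of vehicle-only control cultures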; settings: S. cerevisiae sgs1 mutant, at 11.0 µM
About 79,000 compounds went through this panel and 15% of them were active in at least one assay; those are over-represented in the sample as a whole. Calls of active or inactive are those of the source. Rule as the data show it: active = growth inhibition above about 70%; inactive = the rest.
Response enum: active, inactive

INSERT INTO assay_data (chemical_structure, assigned_label) VALUES
  ('NC(=S)NC(=S)Nc1ccccc1', 'inactive'),
  ('O=C1C(=O)c2ccccc2C(O)=C1C(C1=C(O)c2ccccc2C(=O)C1=O)c1ccc(Cl)cc1', 'active');

Turning now to a further compound:
Could you please tell me the result logged for Cc1c(-c2ccccn2)ccc2ccccc12 in this assay?
inactive

###

assay: NCI Yeast Anticancer Drug Screen. Data for the rad14 strain (AID 159);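 also: 0% = growth of vehicle-treated control cultures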; details: S. cerevisiae rad14 strain growth inhibition; at 11.0 µM; active compounds read high
The panel holds about 79,000 compounds, 15% with a hit somewhere; the sample as a whole holds those more often.
// Condition not met strictly below 20% in growth inhibition; Condition met otherwise

Answered cases to consult:
INSERT INTO measurements (compound, assigned_label) VALUES
  ('Nc1ncnc2c1ncn2C1OC(CO)CC1O (centres undefined)', 'Condition met'),
  ('CNC(=O)OCc1c(COC(=O)NC)c(-c2ccc(Cl)cc2)n2c1CCC2', 'Condition not met'),
  ('O=C1NC(=O)c2ccc([N+](=O)[O-])c3cccc1c23', 'Condition met'),
  ('O=C(O)CNC(=S)Nc1ccccc1', 'Condition not met'),
  ('CCOC1Oc2ccccc2-c2nc(N)ncc21 (centres undefined)', 'Condition not met'),
  ('CCCCc1nnc(NS(=O)(=O)c2ccc(C)cc2)s1', 'Condition not met');

Can CCOC(=O)CC1(C(=O)OCC)c2[nH]c3ccccc3c2CCN1Cc1ccccc1 (centres undefined) be said to have growth inhibition at or above 20%?
Condition not met

Can OC(/C=C/c1ccccc1)(Cc1cc(-c2ccccc2)n[nH]1)c1ccccc1 (centres undefined) be said to have growth inhibition at or above 20%?
Condition not met

Can NNC(=O)CCc1cc2ccccc2c2ccccc12 be said to have growth inhibition at or above 20%?
Condition met

Can c1ccc(CCN2CCc3ccccc3C2)cc1 be said to have growth inhibition at or above 20%?
Condition met

Can CC1=CC(=C(c2ccc(N)cc2)c2ccc(N)cc2)C=CC1=N be said to have growth inhibition at or above 20%?
Condition not met

Can Cn1c(-c2ccc(/C=N\N3CCN(/N=C/c4ccc(-c5c[n+]6ccccc6n5C)cc4)CC3)cc2)c[n+]2ccccc12 be said to have growth inhibition at or above 20%?
Condition not met

Can CCC(C)(C)c1ccc(Oc2cccc(C(=O)O)c2)cc1 be said to have growth inhibition at or above 20%?
Condition not met

Can CCCCC(CC)C(=O)[O][Sn]([CH2]CCC)([CH2]CCC)[O]C(=O)C(CC)CCCC (centres undefined) be said to have growth inhibition at or above 20%?
Condition met

Can CCCCC/C(=C(\C#N)C(=O)OCC)c1ccccc1 be said to have growth inhibition at or above 20%?
Condition not met

Can Cc1ccccc1N=Cc1cc(Cl)ccc1O be said to have growth inhibition at or above 20%?
Condition not met

Can O=C1C=C(Cl)C(=O)C(c2ccc(Cl)cc2)=C1 be said to have growth inhibition at or above 20%?
Condition met

Can COC(=O)/C=C(/CC(=O)OC)C(=O)OC be said to have growth inhibition at or above 20%?
Condition not met

Can CCOC(=O)COc1c(OC)cc(C2C3=C(COC3=O)Oc3cc4c(cc32)OCO4)cc1OC (centres undefined) be said to have growth inhibition at or above 20%?
Condition not met

Can O=C(CC(=O)n1nc(-c2ccccc2)c(N=Nc2ccc(Cl)cc2)c1-c1ccccc1)Nc1cccc(Cl)c1 be said to have growth inhibition at or above 20%?
Condition not met

Can CC1OC(O[C@H]2/C=C/C=C/C=C/C=C/C=C/C=C/C=C/[C@H](C)[C@@H](O)[C@@H](C)[C@H](C)OC(=O)C[C@H](O)C[C@H](O)CC[C@@H](O)[C@H](O)C[C@H](O)C[C@]3(O)C[C@H](O)[C@@H](C(=O)O)[C@H](C2)O3)C(O)C(N)C1O (some centres undefined) be said to have growth inhibition at or above 20%?
Condition met

Can Cc1ccc(Cl)cc1NC(=O)OCCN(C)C(=O)Nc1cc(Cl)ccc1C be said to have growth inhibition at or above 20%?
Condition not met

Can O=C1c2cccnc2C(=O)C2C3C=CC(C3)C12 (centres undefined) be said to have growth inhibition at or above 20%?
Condition met

Can Cc1ccc(NC(c2ccccc2)c2ccc3cccnc3c2O)cc1 (centres undefined) be said to have growth inhibition at or above 20%?
Condition not met

Where these numbers come from: PubChem BioAssay (NCI)
